Recorded measurements of IC50, one per entry
- tested-target: CyclinE1/CDK2 (Homo sapiens, UniProt P24864)
- Construct: purchased Eurofins, discovery 14-475
- protocol-description: Fluorescence Polarization (FP) competitive binding assay, Cyclin E1/Cdk2;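 further: readings taken after two-hour equilibration at room temperature in HEPES buffer with NaCl, DTT, NP-40 and BSA, IC50 fitted from eight-concentration serial dilution series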
- condition-notes: 10 nM Cyclin E1/Cdk2, 2 nM FAM probe; average of 2-3 independent experiments; read-out: Cyclin E FP IC50
*1 amine or outer side, *2 acyl side, *3 side chain or, on linkers, in order; H or OH if unused. Where a SMILES comes first, the peptide text is derived from it. Bridges are numbered along the chain shown (N, C = ends). [ ]: non-standard residue; d: D form. The star is where a group is joined. X140 = CN([C@@H](Cc1cc(Cl)ccc1-c1ccc(Oc2cccnc2)cc1)C(=O)[*:2])[*:1]; NMehhhLys(Me) = CN([C@@H](CCCCCCCN(C)[*:3])C(=O)[*:2])[*:1]; X22 = CN([C@@H](Cc1cc(Cl)ccc1-c1cnn(C)c1)C(=O)[*:2])[*:1]; Cyclobutanecarbonyl(1-CF3) = O=C(C1(C(F)(F)F)CCC1)*; cBuCO(3,3-F2-1-CF3) = O=C(C1(C(F)(F)F)CC(F)(F)C1)*; Pro(trans-4-F) = O=C(O)[C@@H]1C[C@@H](F)CN1; Gly(cPr) = N[C@H](C(=O)O)C1CC1
Enter your answer as a number in nM; do not include the unit.

molecule	obs-value
CC(=O)N1CC=C(c2ccc(Cl)cc2C[C@H]2C(=O)N(C)CCCCCC[C@H](N(C)C(=O)[C@@H](NC(=O)[C@@H]3C[C@@H](F)CN3C(=O)C3(C(F)(F)F)CC(F)(F)C3)C3CC3)C(=O)N[C@@H](CC(C)C)C(=O)N2C)CC1	3620

IC50 reading for CC(C)C[C@@H]1NC(=O)[C@@H](N(C)C(=O)[C@@H](NC(=O)[C@@H]2CCCN2C(=O)C2(C(F)(F)F)CCC2)C2CC2)CCCCCCCN(C)C(=O)[C@H](Cc2cc(Cl)ccc2-c2cnn(C)c2)N(C)C1=O [Example 76] ({Cyclobutanecarbonyl(1-CF3)}-P[Gly(cPr)][NMehhhLys(Me)]L[X22]; lactam 3-C) : 880

IC50 reading for CC(C)C[C@@H]1NC(=O)[C@@H](N(C)C(=O)[C@@H](NC(=O)[C@@H]2C[C@@H](F)CN2C(=O)C2(C(F)(F)F)CC(F)(F)C2)C2CC2)CCCCCCCN(C)C(=O)[C@H](Cc2cc(Cl)ccc2-c2ccc(Oc3cccnc3)cc2)N(C)C1=O [Example 385] ({cBuCO(3,3-F2-1-CF3)}-[Pro(trans-4-F)][Gly(cPr)][NMehhhLys(Me)]L[X140]; lactam 3-C) : 1630

====

- tested-target: CyclinA2/CDK2 (Homo sapiens, UniProt P20248)
- Construct: purchased CRELUX Protein Services
- protocol-description: Fluorescence Polarization (FP) competitive binding assay, Cyclin A2/Cdk2;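 further: plates equilibrated two hours at room temperature before polarization reading, IC50 fitted from eight-concentration compound titration curves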
- condition-notes: 8 nM Cyclin A2/Cdk2, 2 nM FAM probe; average of 2-3 independent experiments; read-out: Cyclin A FP IC50
*1 amine or outer side, *2 acyl side, *3 side chain or, on linkers, in order; H or OH if unused. Where a SMILES comes first, the peptide text is derived from it. Bridges are numbered along the chain shown (N, C = ends). [ ]: non-standard residue; d: D form. The star is where a group is joined. X195 = CC(=O)Nc1ccc(-c2ccc(Cl)cc2C[C@@H](C(=O)[*:2])N(C)[*:1])cn1; X166 = CN([C@@H](Cc1cc(F)ccc1C1=CC2COCC(C1)N2)C(=O)[*:2])[*:1]; X26 = CN([C@@H](Cc1cc(F)ccc1-c1cnn(C2CC2)c1)C(=O)[*:2])[*:1]; NMehhhLys(Me) = CN([C@@H](CCCCCCCN(C)[*:3])C(=O)[*:2])[*:1]; cBuCO(3,3-F2-1-CF3) = O=C(C1(C(F)(F)F)CC(F)(F)C1)*; Pro(trans-4-F) = O=C(O)[C@@H]1C[C@@H](F)CN1; Gly(cPr) = N[C@H](C(=O)O)C1CC1; X129 = N#CC1(C(=O)*)CCC1
endpoint-label: pIC50
Please keep in mind that pIC50 is minus log10 of the molar concentration; only the number is needed.

Example entries begin here.
compound	obs-value
CC(C)C[C@@H]1NC(=O)[C@@H](N(C)C(=O)[C@@H](NC(=O)[C@@H]2C[C@@H](F)CN2C(=O)C2(C(F)(F)F)CC(F)(F)C2)C2CC2)CCCCCCCN(C)C(=O)[C@H](Cc2cc(F)ccc2C2=CC3COCC(C2)N3)N(C)C1=O (stereo partly drawn) [Example 166] ({cBuCO(3,3-F2-1-CF3)}-[Pro(trans-4-F)][Gly(cPr)][NMehhhLys(Me)]L[X166]; lactam 3-C)	7.22
CC(C)C[C@@H]1NC(=O)[C@@H](N(C)C(=O)[C@@H](NC(=O)[C@@H]2C[C@@H](F)CN2C(=O)C2(C#N)CCC2)C2CC2)CCCCCCCN(C)C(=O)[C@H](Cc2cc(F)ccc2-c2cnn(C3CC3)c2)N(C)C1=O [Example 122] (X129-[Pro(trans-4-F)][Gly(cPr)][NMehhhLys(Me)]L[X26]; lactam 3-C)	7.70

pIC50 reading for CC(=O)Nc1ccc(-c2ccc(Cl)cc2C[C@H]2C(=O)N(C)CCCCCCC[C@H](N(C)C(=O)[C@@H](NC(=O)[C@@H]3C[C@@H](F)CN3C(=O)C3(C(F)(F)F)CC(F)(F)C3)C3CC3)C(=O)N[C@@H](CC(C)C)C(=O)N2C)cn1 [Example 265] ({cBuCO(3,3-F2-1-CF3)}-[Pro(trans-4-F)][Gly(cPr)][NMehhhLys(Me)]L[X195]; lactam 3-C) : 7.70
